# reported Kd; entries follow
Target: T1, sulfated human anionic trypsin purified from the conditioned medium of transfected HEK 293T cells (human, UniProt P07478 24-247, sulfated on Tyr154)
T1 construct: human anionic trypsin, the active enzyme cut from anionic trypsinogen (Hu2) by enteropeptidase; also called Hu2-SO4 (HEK 293T); source: HEK 293T, cotransfected with tyrosylprotein sulfotransferase 2
T1 sequence (P07478 24-247): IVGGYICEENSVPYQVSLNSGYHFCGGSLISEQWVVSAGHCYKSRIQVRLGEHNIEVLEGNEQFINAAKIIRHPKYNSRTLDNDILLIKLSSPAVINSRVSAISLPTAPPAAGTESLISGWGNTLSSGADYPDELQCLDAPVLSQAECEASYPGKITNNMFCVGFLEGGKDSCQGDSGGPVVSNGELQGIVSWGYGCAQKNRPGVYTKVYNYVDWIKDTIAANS
Experiment: equilibrium binding assay (free trypsin activity on a fluorogenic substrate); fixed trypsin incubated with increasing SPINK1, 0.2 ml, 0.1 M Tris-HCl (pH 8.0), 150 mM NaCl, 1 mM CaCl2, 0.05% Tween 20, 15 h; free trypsin measured with Z-Gly-Pro-Arg-AMC; apparent KD, global fit of at least three experiments
Conditions: both partners purified
Just the number please, in pM, no unit attached.

{"columns": ["Binder", "Observed measurement"],
 "data": [
  ["SPINK1 variant N34S, C-terminal 10His tag (natural protein, human, UniProt P00995 24-79, looked up, also called SPINK1 N34S; p.N34S; source: HEK 293T, transfected, purified from conditioned medium (nickel-nitrilotriacetic acid cartridge); not shown: 10His, C-terminal, kept) DSLGREAKCYSELNGCTKIYDPVCGTDGNTYPNECVLCFENRKRQTSILIQKSGPC", 6.3]
]}

Would you kindly look at the next entry?
Prompt line: Please give the documented Kd of serine protease inhibitor Kazal type 1 (SPINK1), wildtype, C-terminal 10His tag (natural protein, human, UniProt P00995 24-79, looked up, expressed from the SPINK1-minigene-1 construct with its own signal peptide; Residue numbers start at the initiator methionine; source: HEK 293T, transfected, purified from conditioned medium (nickel-nitrilotriacetic acid cartridge); not shown: 10His, C-terminal, kept) DSLGREAKCYNELNGCTKIYDPVCGTDGNTYPNECVLCFENRKRQTSILIQKSGPC
Response line: 9
